System: A549
assay-remarks: cells
Type: functional, cell-based
assay-setup: Homo sapiens, A549, 72 h
Description: Antiproliferative activity against human A549 cells measured after 72 hrs under normoxic condition by MTT assay
pIC50: −log10 of the molar value.
Entries and their measured pIC50 follow.

>  <smiles-input>
CN1C(=O)NS(=O)(=O)c2ccccc21

>  <pIC50>
4.70

$$$$
>  <smiles-input>
Cc1cc(C)c2c(c1)S(=O)(=O)NC(=O)N2

>  <pIC50>
5.32

$$$$
>  <smiles-input>
O=C1Nc2c(Cl)cccc2S(=O)(=O)N1

>  <pIC50>
4.96

$$$$
>  <smiles-input>
O=C1Nc2ccccc2S(=O)(=O)N1

>  <pIC50>
5.45

$$$$
>  <smiles-input>
O=C1Nc2ccc(F)cc2S(=O)(=O)N1

>  <pIC50>
4.74

$$$$

---

target-or-system: Carbonic anhydrase 2 (Homo sapiens)
pKi: −log10 of the molar value.
Entries and their measured pKi follow.

>  <smiles-input>
O=C1Nc2c(C(=O)O)cccc2S(=O)(=O)N1

>  <target-or-system>
Carbonic anhydrase 2 (Homo sapiens)

>  <pKi>
5.61

$$$$
>  <smiles-input>
Cc1cc(C)c2c(c1)NC(=O)NS2(=O)=O

>  <target-or-system>
Carbonic anhydrase 2 (Homo sapiens)

>  <pKi>
5.53

$$$$
>  <smiles-input>
CN1C(=O)NS(=O)(=O)c2ccccc21

>  <target-or-system>
Carbonic anhydrase 2 (Homo sapiens)

>  <pKi>
6.07

$$$$
>  <smiles-input>
CN1C(=O)NS(=O)(=O)c2cc(Cl)ccc21

>  <target-or-system>
Carbonic anhydrase 2 (Homo sapiens)

>  <pKi>
5.63

$$$$
>  <smiles-input>
O=C1Nc2c(F)cccc2S(=O)(=O)N1

>  <target-or-system>
Carbonic anhydrase 2 (Homo sapiens)

>  <pKi>
6.85

$$$$
>  <smiles-input>
O=C1Nc2ccc(C(=O)O)cc2S(=O)(=O)N1

>  <target-or-system>
Carbonic anhydrase 2 (Homo sapiens)

>  <pKi>
5.17

$$$$
>  <smiles-input>
COc1ccc2c(c1)S(=O)(=O)NC(=O)N2

>  <target-or-system>
Carbonic anhydrase 2 (Homo sapiens)

>  <pKi>
5.72

$$$$
>  <smiles-input>
Cc1ccc2c(c1)S(=O)(=O)NC(=O)N2

>  <target-or-system>
Carbonic anhydrase 2 (Homo sapiens)

>  <pKi>
6.06

$$$$

---

// pKi collected for Carbonic anhydrase 9 (Homo sapiens)
pKi: −log10 of the molar value.

>  <smiles-input>
O=C1Nc2c(Br)cccc2S(=O)(=O)N1

>  <pKi>
7.13

$$$$
>  <smiles-input>
Cc1cc(C)c2c(c1)S(=O)(=O)NC(=O)N2

>  <pKi>
7.59

$$$$
>  <smiles-input>
O=C1Nc2c(C(=O)O)cccc2S(=O)(=O)N1

>  <pKi>
7.04

$$$$
>  <smiles-input>
COc1ccc2c(c1)S(=O)(=O)NC(=O)N2

>  <pKi>
7.45

$$$$
>  <smiles-input>
O=C1Nc2ccccc2S(=O)(=O)N1

>  <pKi>
7.10

$$$$
>  <smiles-input>
O=C1Nc2c(Cl)cccc2S(=O)(=O)N1

>  <pKi>
7.55

$$$$
>  <smiles-input>
O=C1Nc2ccc(Br)cc2S(=O)(=O)N1

>  <pKi>
7.51

$$$$
>  <smiles-input>
Cc1ccc(C)c2c1NC(=O)NS2(=O)=O

>  <pKi>
6.43

$$$$
>  <smiles-input>
O=C1Nc2ccc(Cl)cc2S(=O)(=O)N1

>  <pKi>
7.24

$$$$

---

// Ki collected for Carbonic anhydrase 1 (Homo sapiens)

>  <smiles-input>
O=C1Nc2ccc(C(=O)O)cc2S(=O)(=O)N1

>  <relation-qualifier>
>

>  <Ki / nM>
10000

$$$$
>  <smiles-input>
O=C1Nc2c(Cl)cccc2S(=O)(=O)N1

>  <relation-qualifier>
=

>  <Ki / nM>
930

$$$$
>  <smiles-input>
Cc1ccc2c(c1)S(=O)(=O)NC(=O)N2

>  <relation-qualifier>
=

>  <Ki / nM>
1070

$$$$
>  <smiles-input>
COc1ccc2c(c1)S(=O)(=O)NC(=O)N2

>  <relation-qualifier>
=

>  <Ki / nM>
3810

$$$$
>  <smiles-input>
Cc1cccc2c1NC(=O)NS2(=O)=O

>  <relation-qualifier>
=

>  <Ki / nM>
969

$$$$
>  <smiles-input>
O=C1Nc2ccc(F)cc2S(=O)(=O)N1

>  <relation-qualifier>
=

>  <Ki / nM>
1290

$$$$
>  <smiles-input>
O=C1Nc2c(C(=O)O)cccc2S(=O)(=O)N1

>  <relation-qualifier>
=

>  <Ki / nM>
5780

$$$$
>  <smiles-input>
O=C1Nc2c(ccc3ccccc23)S(=O)(=O)N1

>  <relation-qualifier>
=

>  <Ki / nM>
2070

$$$$

---

target-or-system: Carbonic anhydrase 4 (Homo sapiens)
Sequence (P22748 whole entry): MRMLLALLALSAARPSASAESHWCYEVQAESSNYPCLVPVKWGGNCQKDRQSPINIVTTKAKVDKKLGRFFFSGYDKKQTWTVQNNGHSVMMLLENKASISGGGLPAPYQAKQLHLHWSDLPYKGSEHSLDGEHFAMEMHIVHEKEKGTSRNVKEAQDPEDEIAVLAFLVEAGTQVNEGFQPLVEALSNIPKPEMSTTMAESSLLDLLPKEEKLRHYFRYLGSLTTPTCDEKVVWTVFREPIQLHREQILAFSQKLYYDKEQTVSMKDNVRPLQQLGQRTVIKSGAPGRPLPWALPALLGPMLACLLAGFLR
pKi: −log10 of the molar value.
Note to self: values exactly at 6 are Y. So pKi at or above 6 is Y, below is N.

>  <smiles-input>
O=C1Nc2c(C(=O)O)cccc2S(=O)(=O)N1

>  <label-value>
Y

$$$$
>  <smiles-input>
Cc1cc(C)c2c(c1)NC(=O)NS2(=O)=O

>  <label-value>
N

$$$$
>  <smiles-input>
O=C1Nc2ccc(O)cc2S(=O)(=O)N1

>  <label-value>
Y

$$$$
>  <smiles-input>
COc1ccc2c(c1)S(=O)(=O)NC(=O)N2

>  <label-value>
N

$$$$
>  <smiles-input>
CN1C(=O)NS(=O)(=O)c2ccccc21

>  <label-value>
N

$$$$
>  <smiles-input>
O=C1Nc2c(ccc3ccccc23)S(=O)(=O)N1

>  <label-value>
N

$$$$
>  <smiles-input>
CN1C(=O)NS(=O)(=O)c2cc(Cl)ccc21

>  <label-value>
N

$$$$

---

// Ki collected for Carbonic anhydrase 7 (Homo sapiens)
assay-endpoint: Ki (nM)

>  <smiles-input>
O=C1Nc2ccccc2S(=O)(=O)N1

>  <assay-endpoint>
Ki

>  <quantitative-result>
466

$$$$
>  <smiles-input>
O=C1Nc2ccc(Cl)cc2S(=O)(=O)N1

>  <assay-endpoint>
Ki

>  <quantitative-result>
1180

$$$$
>  <smiles-input>
Cc1cc(C)c2c(c1)S(=O)(=O)NC(=O)N2

>  <assay-endpoint>
Ki

>  <quantitative-result>
691

$$$$
>  <smiles-input>
CN1C(=O)NS(=O)(=O)c2cc(Cl)ccc21

>  <assay-endpoint>
Ki

>  <quantitative-result>
3240

$$$$
>  <smiles-input>
O=C1Nc2c(ccc3ccccc23)S(=O)(=O)N1

>  <assay-endpoint>
Ki

>  <quantitative-result>
3950

$$$$
>  <smiles-input>
COc1ccc2c(c1)S(=O)(=O)NC(=O)N2

>  <assay-endpoint>
Ki

>  <quantitative-result>
1360

$$$$
>  <smiles-input>
O=C1Nc2c(F)cccc2S(=O)(=O)N1

>  <assay-endpoint>
Ki

>  <quantitative-result>
126

$$$$
>  <smiles-input>
O=C1Nc2ccc(O)cc2S(=O)(=O)N1

>  <assay-endpoint>
Ki

>  <quantitative-result>
2560

$$$$
>  <smiles-input>
Cc1cccc2c1NC(=O)NS2(=O)=O

>  <assay-endpoint>
Ki

>  <quantitative-result>
975

$$$$
>  <smiles-input>
O=C1NS(=O)(=O)c2cccc3c2N1CC3

>  <assay-endpoint>
Ki

>  <quantitative-result>
1280

$$$$

---

Entries and their measured Ki follow.
target-or-system: Carbonic anhydrase 4 (Homo sapiens)
assay-endpoint: Ki (nM)

>  <smiles-input>
O=C1Nc2ccc(F)cc2S(=O)(=O)N1

>  <assay-endpoint>
Ki

>  <quantitative-result>
709

$$$$
>  <smiles-input>
Cc1cccc2c1NC(=O)NS2(=O)=O

>  <assay-endpoint>
Ki

>  <quantitative-result>
1230

$$$$
>  <smiles-input>
O=C1Nc2ccccc2S(=O)(=O)N1

>  <assay-endpoint>
Ki

>  <quantitative-result>
675

$$$$
>  <smiles-input>
O=C1Nc2c(Br)cccc2S(=O)(=O)N1

>  <assay-endpoint>
Ki

>  <quantitative-result>
854

$$$$
>  <smiles-input>
Cc1ccc2c(c1)S(=O)(=O)NC(=O)N2

>  <assay-endpoint>
Ki

>  <quantitative-result>
897

$$$$
>  <smiles-input>
Cc1ccc(C)c2c1NC(=O)NS2(=O)=O

>  <assay-endpoint>
Ki

>  <quantitative-result>
1430

$$$$
>  <smiles-input>
O=C1Nc2c(Cl)cccc2S(=O)(=O)N1

>  <assay-endpoint>
Ki

>  <quantitative-result>
1030

$$$$
